Overview of reported ELISA signal across a group of binders:
Target: trypsin
Experiment: monoclonal phage ELISA

- binder: "F03 (KnotBody with EET 5-3 framing) (scFv, V domains shown) VH: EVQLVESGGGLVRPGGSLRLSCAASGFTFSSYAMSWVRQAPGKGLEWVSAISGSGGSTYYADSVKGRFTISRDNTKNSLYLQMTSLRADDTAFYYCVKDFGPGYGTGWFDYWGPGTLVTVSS VL: AVNWYQQLPGRAPKLLIYAAGGCGPNGFCGSGGDGGVCPRILMRCKQDSDCLAGCGAHSGIPERFSGSKSGTSASLAISGLRSEDEADYYCAAWDDSLNGWVFGGGTKVTVLG"
  ELISA signal: 68000
- binder: "E03 (KnotBody with EET 5-3 framing) (scFv, V domains shown) VH: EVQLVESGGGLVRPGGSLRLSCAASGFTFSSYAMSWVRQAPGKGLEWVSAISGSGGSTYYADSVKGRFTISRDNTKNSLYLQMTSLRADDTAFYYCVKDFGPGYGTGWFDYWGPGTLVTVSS VL: AVNWYQQLPGKAPKLLIYAAGGCGPNGFCGSGSDGGVCPRILMRCKQDSDCLAGCGRNSGIPERFSGSKSGHTATLTISRVEAGDEADYYCQVWDSSSDHVLFGGGTKLTVLG"
  ELISA signal: 82500
- binder: "F07 (KnotBody with EET 5-3 framing) (scFv, V domains shown) VH: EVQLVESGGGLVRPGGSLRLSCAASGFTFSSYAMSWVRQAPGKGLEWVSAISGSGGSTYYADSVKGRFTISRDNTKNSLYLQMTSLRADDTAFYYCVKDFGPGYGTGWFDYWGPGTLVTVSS VL: AVNWYQQLPGKAPKLLIYAAGGCGPNGFCGSGSDGGVCPRILMRCKQDSDCLAGCGGQSGVPDRFSGSKSGTSASLAISRLQSEDEADYYCAAWDDSLNAYVFGTGTKVTVLG"
  ELISA signal: 72800
- binder: "E05 (KnotBody with EET 5-3 framing) (scFv, V domains shown) VH: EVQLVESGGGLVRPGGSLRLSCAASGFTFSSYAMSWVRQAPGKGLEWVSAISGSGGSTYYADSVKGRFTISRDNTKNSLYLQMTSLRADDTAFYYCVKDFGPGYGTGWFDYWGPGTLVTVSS VL: AVNWYQQLPGKAPKLLIYAAGGCGPNGFCGSGSDGGVCPRILMRCKQDSDCLAGCGAQSGIPERFSGSKSGTSASLAISGLQSEDEAHYYCAAWDDSLNGYVFGTGTKVTVLG"
  ELISA signal: 119000
- binder: "E01 (KnotBody with EET 5-3 framing) (scFv, V domains shown) VH: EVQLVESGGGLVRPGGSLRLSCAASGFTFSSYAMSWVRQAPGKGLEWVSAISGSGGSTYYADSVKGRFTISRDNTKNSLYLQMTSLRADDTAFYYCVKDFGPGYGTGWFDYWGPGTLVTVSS VL: AVNWYQQLPGKAPKLLIYAAGGCGPNGFCGSGSDGGVCPRILMRCKQDSDCLAGCGIHSGVSDRFSDSKSGTSASLAISGLQSEDEADYYCAAWDDSLNGYVFGTGTKLTVLG"
  ELISA signal: 128000
